target: Neutrophil elastase (Homo sapiens) (UniProt P08246); experiment: Ratio of Kinact to Ki for human neutrophil elastase
Sequence (P08246 whole entry): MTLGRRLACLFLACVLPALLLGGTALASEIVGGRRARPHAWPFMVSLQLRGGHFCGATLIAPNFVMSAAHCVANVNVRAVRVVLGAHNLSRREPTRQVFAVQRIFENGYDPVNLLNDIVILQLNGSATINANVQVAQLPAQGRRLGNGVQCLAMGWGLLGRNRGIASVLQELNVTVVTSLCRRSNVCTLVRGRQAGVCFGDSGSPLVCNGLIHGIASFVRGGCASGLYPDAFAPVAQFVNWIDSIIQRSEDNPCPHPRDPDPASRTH
VALUE TYPE: Ratio

A selection of reference data follows.
MOLECULE	SYSTEM NAME	VALUE TYPE	VAL
CC(C)C[C@H]1C(=O)N(COC(=O)C(C)c2ccc(C(=O)c3ccccc3)cc2)S(=O)(=O)N1C (stereo partly specified)	Neutrophil elastase (Homo sapiens) (UniProt P08246)	Ratio	540000
CC(C)Cc1ccc(C(C)C(=O)OCN2C(=O)[C@H](CC(C)C)N(Cc3ccccc3)S2(=O)=O)cc1 (stereo partly specified)	Neutrophil elastase (Homo sapiens) (UniProt P08246)	Ratio	1580
CC(=O)Oc1ccccc1C(=O)OCN1C(=O)[C@H](CC(C)C)N(Cc2ccccc2)S1(=O)=O	Neutrophil elastase (Homo sapiens) (UniProt P08246)	Ratio	1.06e+06

(A) CC(C)C[C@H]1C(=O)N(COC(=O)Cc2ccccc2Nc2c(Cl)cccc2Cl)S(=O)(=O)N1C
(B) CC(C)C[C@H]1C(=O)N(COC(=O)c2ccccc2O)S(=O)(=O)N1C
Request: Compare reported Ratio values for A and B . Which is lower? Which one? Tell me its label.
Response: B
